System: CCRF-CEM
Run description: Inhibitory concentration required to decrease cell viability in cell growth culture against leukemia cells CCRF-CEM
Format: functional, cell-based
Run parameters: Homo sapiens
pIC50: −log10 of the molar value.
Please note: class 1 applies when pIC50 is 7 or greater, and class 0 applies otherwise.

QUERY: Quick check: does Cc1c(CN(C)c2ccc(Cl)c(Cl)c2)cnc2nc(N)nc(N)c12 have pIC50 greater than or equal to 7?
RESULT: class 1

QUERY: Quick check: does Cc1c(CN(C=O)c2cc(Cl)c(Cl)c(Cl)c2)cnc2nc(N)nc(N)c12 have pIC50 greater than or equal to 7?
RESULT: class 1

QUERY: Quick check: does Cc1c(CN(C)c2cc(Cl)c(Cl)c(Cl)c2)cnc2nc(N)nc(N)c12 have pIC50 greater than or equal to 7?
RESULT: class 0

QUERY: Quick check: does Cc1c(CNc2cc(Cl)c(Cl)c(Cl)c2)cnc2nc(N)nc(N)c12 have pIC50 greater than or equal to 7?
RESULT: class 0

QUERY: Quick check: does COc1cc(N(C=O)Cc2cnc3nc(N)nc(N)c3c2C)cc(OC)c1OC have pIC50 greater than or equal to 7?
RESULT: class 0

QUERY: Quick check: does COc1cc(N(C)Cc2cnc3nc(N)nc(N)c3c2C)cc(OC)c1OC have pIC50 greater than or equal to 7?
RESULT: class 1

QUERY: Quick check: does Cc1c(CN(C=O)c2ccc(Cl)c(Cl)c2)cnc2nc(N)nc(N)c12 have pIC50 greater than or equal to 7?
RESULT: class 0
